Cited source for all entries: ChEMBL document CHEMBL1201862

Parameter: GI50. Scope: all listed entries.
Test system: LXFL 529
test-method-notes: NCI tumour cell line growth inhibition, 48 h
Activity calls are given as the source filed them. Rule as the data show it: active = GI50 up to about 1.1 µM and inactive = higher.
measured-attribute: GI50

1) O=C(O)Cn1c(=O)[nH]c(=O)c2c1ncn2Cc1ccccc1 | > 100 µM (inactive)
2) O=C1C=CC2(O)OCC3C=C4O[C@@H]5OC6(CCCCC6)O[C@@H]5C4[C@@H]2[C@@H]13 (stereo partly specified) | 15.1 µM (inactive)
3) O=C(Nc1ccc2[nH]c3c(-c4ccccc4)nccc3c2c1)c1ccccc1[N+](=O)[O-] | 6.52 µM (inactive)
4) COc1ccc(/C=c2/sc3n(c2=O)NC(c2ccc(Cl)cc2)NN=3)cc1 (stereo unspecified) | > 100 µM (inactive)
5) O=C(c1ccccn1)c1nc(-c2ccc(Cl)c(Cl)c2)nc2ccc(Cl)cc12 | 46.6 µM (inactive)
6) COC(=O)CSc1nnc(-c2ccc(O)c([N+](=O)[O-])c2)[nH]1 | > 100 µM (inactive)
7) O=C(O)c1oc2cccc3c2c1CCC3 | > 100 µM (inactive)
8) COc1ccc2c(c1)CCc1c-2nc2cc3c(cc2c1O)OCO3 | > 100 µM (inactive)
9) Cc1c2ccncc2c(C)c2c1[nH]c1ccc(Cl)cc12 | 1.84 µM (inactive)
10) O=[N+]([O-])C=C(c1ccc(Cl)cc1)c1ccc(Cl)cc1 | 15.1 µM (inactive)
11) CCOC(=O)C=C1CCN(C(=O)c2ccccc2)CC1 | > 100 µM (inactive)
